FYI, the data here is from ChEMBL document CHEMBL3877291.

- measurementNotes: Selectivity index, ratio of EC50 for human CRL-1855 cells to EC50 for Trypanosoma brucei 427 bloodstream forms
- Format: toxicity, cell-based
- conditionContext: read-out: Ratio EC50
measurementLabel: selectivity ratio
Number only, no unit.

// field: selectivity ratio; key: Clc1cc(Cl)cc(CN[C@H]2CCCN(c3nc4nc(Cl)ccc4[nH]3)C2)c1 ; value = 751

---

- measurementNotes: Cytotoxicity against human CRL-1855 cells assessed as cell viability after 48 hrs by alamar blue assay
- Assay type: toxicity, cell-based
measurementLabel: EC50 at 48 h (µM)
Just the number please, in µM, no unit attached.

// field: EC50 at 48 h; key: Clc1cc(Cl)cc(CNC2CCCC(c3nc4nc(Cl)ccc4[nH]3)C2)c1 (configuration not stated) ; value = 33.1

// field: EC50 at 48 h; key: CCN(CC)CCCC(C)Nc1c2ccc(Cl)cc2nc2ccc(OC)cc12 (configuration not stated) [QUINACRINE] ; value = 2.12

// field: EC50 at 48 h; key: Clc1cc(Cl)cc(CN[C@H]2CCCN(c3nc4nc(Cl)ccc4[nH]3)C2)c1 ; value = 29.3

// field: EC50 at 48 h; key: O=C(Cc1cc(Cl)cc(Cl)c1)N1CCCC(c2nc3cc(Cl)ccc3[nH]2)C1 (configuration not stated) ; value = 22.8

// field: EC50 at 48 h; key: Clc1cc(Cl)cc(NCC2CCCN(c3nc4nc(Cl)ccc4[nH]3)C2)c1 (configuration not stated) ; value = 15.4

// field: EC50 at 48 h; key: Clc1cc(Cl)cc(CNCCCc2nc3ccc(Cl)nc3[nH]2)c1 ; value = 45.7

// field: EC50 at 48 h; key: Clc1cc(Cl)cc(CNC2CCCN(c3nc4nc(Cl)ccc4[nH]3)C2)c1 (configuration not stated) ; value = 46.2
